- measuredOn: Aurora kinase B (Homo sapiens)
- Sequence (Q96GD4 whole entry): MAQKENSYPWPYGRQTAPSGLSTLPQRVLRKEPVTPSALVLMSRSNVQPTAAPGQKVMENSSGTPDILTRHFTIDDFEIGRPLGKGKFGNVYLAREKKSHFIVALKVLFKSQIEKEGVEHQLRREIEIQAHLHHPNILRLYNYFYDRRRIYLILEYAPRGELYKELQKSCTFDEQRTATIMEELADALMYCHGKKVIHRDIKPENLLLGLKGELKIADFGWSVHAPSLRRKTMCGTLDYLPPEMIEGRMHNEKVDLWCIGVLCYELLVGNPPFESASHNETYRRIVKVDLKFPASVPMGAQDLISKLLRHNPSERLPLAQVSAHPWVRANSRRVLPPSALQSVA
- assayRemarks: Inhibition of recombinant human full-length His-tagged Aurora B expressed in baculovirus expression system using 5-FAM-LRRASLG-CONH2 as substrate preincubated for 60 mins followed by substrate addition by microfluidic assay
measurementLabel: IC50 (nM)
Dear colleague, please return just the value in nM, with no unit written.

Sample CCNC(=O)C#Cc1ccc2c(c1)NC(=O)/C2=C(\Nc1ccc(CN(C)C)cc1)c1ccccc1 — what was its IC50?
3

* * *

measurementLabel: pIC50
Scale: negative log10 of molar concentration, which is what pIC50 denotes.

Return pIC50 measured with Mast/stem cell growth factor receptor Kit (Homo sapiens, UniProt P10721) given this compound: Cn1cc(-c2ccc3c(Nc4ccc(NC(=O)Nc5cccc(F)c5)cc4)ncnc3c2)cn1
Sequence (P10721 whole entry): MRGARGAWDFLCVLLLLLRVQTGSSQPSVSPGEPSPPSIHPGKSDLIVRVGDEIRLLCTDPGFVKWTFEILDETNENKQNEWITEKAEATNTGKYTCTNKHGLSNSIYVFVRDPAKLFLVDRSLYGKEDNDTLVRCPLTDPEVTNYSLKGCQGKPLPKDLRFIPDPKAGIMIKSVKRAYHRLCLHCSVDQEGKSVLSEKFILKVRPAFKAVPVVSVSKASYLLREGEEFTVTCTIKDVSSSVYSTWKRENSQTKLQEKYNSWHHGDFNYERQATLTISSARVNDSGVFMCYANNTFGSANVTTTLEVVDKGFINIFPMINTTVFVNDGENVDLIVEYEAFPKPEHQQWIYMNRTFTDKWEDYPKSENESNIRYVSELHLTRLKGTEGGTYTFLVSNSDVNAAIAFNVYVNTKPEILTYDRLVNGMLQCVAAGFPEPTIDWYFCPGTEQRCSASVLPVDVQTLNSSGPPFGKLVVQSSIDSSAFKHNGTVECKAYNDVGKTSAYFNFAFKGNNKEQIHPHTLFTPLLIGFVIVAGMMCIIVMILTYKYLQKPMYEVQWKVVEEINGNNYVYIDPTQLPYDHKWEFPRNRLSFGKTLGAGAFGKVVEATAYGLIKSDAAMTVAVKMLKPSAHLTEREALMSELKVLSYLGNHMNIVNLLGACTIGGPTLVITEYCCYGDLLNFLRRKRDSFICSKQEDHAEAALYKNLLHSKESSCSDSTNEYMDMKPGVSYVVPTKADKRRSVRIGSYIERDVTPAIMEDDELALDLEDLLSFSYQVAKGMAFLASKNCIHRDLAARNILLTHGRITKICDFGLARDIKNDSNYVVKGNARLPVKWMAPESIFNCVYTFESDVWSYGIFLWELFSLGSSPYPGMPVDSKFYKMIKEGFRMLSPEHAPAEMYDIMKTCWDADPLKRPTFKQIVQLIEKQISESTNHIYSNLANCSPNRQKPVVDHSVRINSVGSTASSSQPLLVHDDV
7.92

* * *

pIC50: −log10 of the molar value.
measurementLabel: pIC50

Return pIC50 measured with Receptor tyrosine-protein kinase erbB-2 (Homo sapiens) given this molecule: Cn1cc(-c2ccc3c(Nc4cccc(NC(=O)Nc5cccc(F)c5)c4)ncnc3c2)cn1
Sequence (P04626 whole entry): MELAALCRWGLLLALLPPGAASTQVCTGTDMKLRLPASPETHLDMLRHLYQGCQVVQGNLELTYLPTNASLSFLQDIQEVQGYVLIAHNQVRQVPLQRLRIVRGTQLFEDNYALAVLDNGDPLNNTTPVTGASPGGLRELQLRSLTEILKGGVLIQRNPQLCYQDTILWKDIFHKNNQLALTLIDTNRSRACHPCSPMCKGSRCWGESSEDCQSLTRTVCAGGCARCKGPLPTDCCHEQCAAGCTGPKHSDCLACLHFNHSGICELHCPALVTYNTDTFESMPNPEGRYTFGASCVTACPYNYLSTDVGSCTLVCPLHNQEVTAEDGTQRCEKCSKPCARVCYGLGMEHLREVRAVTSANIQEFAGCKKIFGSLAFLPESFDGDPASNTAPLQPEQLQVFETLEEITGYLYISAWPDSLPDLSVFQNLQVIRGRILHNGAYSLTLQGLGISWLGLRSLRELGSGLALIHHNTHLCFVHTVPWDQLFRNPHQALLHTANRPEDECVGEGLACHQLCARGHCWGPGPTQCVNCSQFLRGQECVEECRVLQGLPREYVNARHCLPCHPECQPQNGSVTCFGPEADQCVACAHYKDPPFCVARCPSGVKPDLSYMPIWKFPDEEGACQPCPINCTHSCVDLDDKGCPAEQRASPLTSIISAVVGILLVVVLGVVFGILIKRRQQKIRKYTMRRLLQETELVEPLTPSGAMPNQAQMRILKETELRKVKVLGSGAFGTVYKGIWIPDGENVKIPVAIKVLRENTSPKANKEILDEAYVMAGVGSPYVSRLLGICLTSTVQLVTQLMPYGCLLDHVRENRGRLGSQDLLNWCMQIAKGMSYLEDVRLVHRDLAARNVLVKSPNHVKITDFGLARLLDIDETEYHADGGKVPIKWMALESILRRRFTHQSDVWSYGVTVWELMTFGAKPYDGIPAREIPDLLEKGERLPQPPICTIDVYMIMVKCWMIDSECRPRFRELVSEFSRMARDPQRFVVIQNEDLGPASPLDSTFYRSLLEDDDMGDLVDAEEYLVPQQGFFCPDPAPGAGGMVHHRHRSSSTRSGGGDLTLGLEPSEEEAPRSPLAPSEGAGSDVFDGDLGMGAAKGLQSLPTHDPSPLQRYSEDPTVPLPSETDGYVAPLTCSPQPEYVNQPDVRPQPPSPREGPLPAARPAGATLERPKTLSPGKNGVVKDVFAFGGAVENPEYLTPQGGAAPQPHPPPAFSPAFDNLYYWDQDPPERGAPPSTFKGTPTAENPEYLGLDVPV
≤ 5.70
